Tested on: SNB-78
method_description: NCI tumour cell line growth inhibition, 48 h
Activity calls are given as the source filed them. No stated cut-off is given here; in the data, active = GI50 up to about 1.1 µM and inactive = higher.
test_readout: GI50

Solved cases (4 shown):
# molecule, target, GI50
data = [
    ("CCCCCCC(O)C/C=C/CCCCCC/C(C(=O)OC)=C(/O)C(=O)OCC (stereo not given)", "SNB-78", "> 100 µM (inactive)"),
    ("COc1ccc2c(c1)CC[C@@H]1C2CC[C@]2(C)C(=O)N(CCN3CCCCC3)C(=O)CC12 (stereo not given in full)", "SNB-78", "> 100 µM (inactive)"),
    ("Cn1c(=O)nc2n(-c3cccc(Br)c3)c3ccccc3nc-2c1=O", "SNB-78", "12.2 µM (inactive)"),
    ("CC(=O)CC(=O)CCC(=O)Nc1cccc(C(F)(F)F)c1", "SNB-78", "> 100 µM (inactive)"),
]

Turning to the following molecule.
[Q] What value of GI50 has been reported for the following molecule? Cc1ccc(C2(O)CC(c3ccc([N+](=O)[O-])o3)=NN2C(=O)COc2ccc(Cl)cc2)cc1 (stereo not given)
[A] 12.9 µM (inactive)

Values were extracted from ChEMBL document CHEMBL1201862.
